Molecular target: recombinant type I human 5α-reductase (Homo sapiens)
Construct: In order to clone the entirely translated regions of type I and type II human 5α-reductases by a polymerase chain reaction (PCR) method; made in house; host or cells: COS-1 cells transiently transfected with pME18sH5R1; resuspended 10000×g pellet of the homogenate used as the enzyme
Sequence (P18405 1-259): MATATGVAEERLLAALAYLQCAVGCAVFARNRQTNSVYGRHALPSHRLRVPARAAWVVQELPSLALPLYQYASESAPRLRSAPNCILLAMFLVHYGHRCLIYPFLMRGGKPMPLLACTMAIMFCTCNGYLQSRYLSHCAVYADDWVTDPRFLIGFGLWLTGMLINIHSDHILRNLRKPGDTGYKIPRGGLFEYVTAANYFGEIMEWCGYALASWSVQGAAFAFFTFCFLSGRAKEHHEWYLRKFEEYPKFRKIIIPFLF
Assay: Inhibitory activity against recombinant type I human 5α-reductase (conversion of 14C testosterone to 14C 5α-dihydrotestosterone)
Assay type: biochemical
Conditions: recombinant human type I 5α-reductase, pH 7.5, 1 μM 14C testosterone, 37° C. 15 minutes; Table 1
Reported values of IC50 for individual entries
The reply should contain only the number, in nM.

molecule="COc1ccc(C(C)(C)NC(=O)[C@H]2CC[C@H]3[C@@H]4CC[C@H]5NC(=O)C=C[C@]5(C)[C@H]4CC[C@]23C)cc1 [Compound of Reference Example 1]" reported_measurement=49

Recorded IC50 of CC(C)(C)NC(=O)[C@H]1CC[C@H]2[C@@H]3CC[C@H]4NC(=O)C=C[C@]4(C)[C@H]3CC[C@]12C [Finasteride, reference compound] , please. 700
